species on record: Homo sapiens; test: To identify inhibition of the IFN signalling (Jak-Stat) pathway via expression of an eGFP reporter gene under the control of an IFN-stimulated response element (ISRE) containing MxA promoter.; type: functional; parameters: scale not given: direction of the effect not stated beside the values; conditions: 30 µM
We begin with a simple list: items and their reported Percent Effect.

{"columns": ["COMPOUND", "Percent Effect"],
 "data": [
  ["Cc1nc(N)cc(C2CN(C(=O)c3ccn(C)n3)CCO2)n1 (stereo not drawn)", "8.03%"],
  ["CCc1cnc2c(c1NCc1cccc(OC)c1)c(=O)n(C)c(=O)n2C", "19.2%"],
  ["CC(C)n1ccnc1C1CCN(Cc2ccc(Cl)c(F)c2)CC1", "18.3%"],
  ["CCS(=O)(=O)N1CCO[C@H]2[C@H](OCCCn3cccn3)CC[C@@H]21", "-0.821%"],
  ["CS(=O)(=O)NCc1cc2n(n1)CCCN(Cc1nc3ccccc3[nH]1)C2", "-1.07%"],
  ["O=C(CCCc1nnc(-c2ccccc2)o1)N1CCN(CCO)CC1", "0.191%"],
  ["CC(NC(=O)Nc1cccnc1N1CCCC1)c1nncn1C (stereo not drawn)", "23.6%"],
  ["O=C(c1cccnc1)N1C[C@@H]2CC[C@H](C1)N(Cc1cc(F)ccc1F)C2", "21.9%"],
  ["O=C(NCCCO)Nc1cccc(Cl)c1F", "-2.91%"],
  ["CC(C)(C)c1ncc2c(n1)CN(C(=O)c1ccc(-c3nc[nH]n3)cc1)C2", "-4.4%"],
  ["CCc1ccc(C(=O)N2CCCC(n3cncn3)C2)o1 (stereo not drawn)", "4.2%"],
  ["Cc1ccn(CCC(=O)N2CCOC(c3nc(-c4cccs4)no3)C2)n1 (stereo not drawn)", "7.42%"],
  ["COCc1cccc(C(=O)N2CCCCC2c2nccs2)c1 (stereo not drawn)", "-4.26%"],
  ["CCn1nc(C)c2nnn(CC(=O)Nc3c(C)cccc3C)c(=O)c21", "4.38%"],
  ["CC(NCc1c(C(C)C)nn(C)c1N1CCOCC1)C(N)=O (stereo not drawn)", "16.4%"],
  ["CCOc1ncccc1NC(=O)NC1CCN(S(C)(=O)=O)CC1", "25.1%"],
  ["Cc1noc(C)c1CN1CCN(CC2CC2)c2ncccc2C1", "23%"],
  ["Cn1ccnc1CN1C[C@@H](CN2CCC(CO)CC2)[C@@H](CO)C1", "7.57%"],
  ["CC(C)c1cc(NC(=O)CN2CCC(N3CCNC3=O)CC2)on1", "23.3%"],
  ["CCc1noc(CNc2ccc(C(=O)N3CCCC(C)C3)cc2C)n1 (stereo not drawn)", "9.39%"],
  ["CN(C)S(=O)(=O)c1ccc(CN2CCCC2c2ccc[nH]2)o1 (stereo not drawn)", "-1.99%"],
  ["CN1CCN(c2ncnc3c2c(C(=O)NC2CC2)c2ccccn23)CC1", "0.0174%"],
  ["Cc1cccc(N2CC[C@@H]3CN(Cc4csc(C)n4)CCO[C@@H]3C2)n1", "-15.6%"]
]}

* * *

Below is a list of entries, each paired with its recorded Percent Effect value.
species: Homo sapiens; assay: To identify inhibition of the IFN signalling (Jak-Stat) pathway via expression of an eGFP reporter gene under the control of an IFN-stimulated response element (ISRE) containing MxA promoter.; type: functional; set-up: scale not given: direction of the effect not stated beside the values; details: 30 µM

{"columns": ["COMPOUND", "Percent Effect / %"],
 "data": [
  ["Cn1cc(CN2CCCC3(CCN(Cc4cccnc4)C3=O)C2)cn1 (centres undefined)", -9.12],
  ["Cc1cc(C)c2nc(CN3CCCC(c4cc[nH]n4)C3)cc(O)c2c1 (centres undefined)", 23.3],
  ["Cc1[nH]ccc1C(=O)N1CCCC(c2nccn2Cc2cscn2)C1 (centres undefined)", 8.11],
  ["COC(=O)c1ccc(N2CCN(CCC(=O)NC(N)=O)C(C)C2)cc1 (centres undefined)", 5.46],
  ["Cc1ncccc1O[C@H]1CCN(C(=O)Cc2cccs2)CC[C@@H]1O", 7.57],
  ["CC(Nc1cccc(CN2CCOC2=O)c1)C(=O)N1CCNC1=O (centres undefined)", 28.2],
  ["CC(C)n1ncc2cc(NC(=O)N3CCC(N4CCCC4)C3)cnc21 (centres undefined)", 3.87],
  ["COc1ccc(CN2C[C@H]3CN(c4ccsc4)C(=O)[C@H]3C2)cc1", 14.6],
  ["COCC1CN(CC2CC2)Cc2nn(C)cc21 (centres undefined)", 4.75],
  ["COc1cc(N2CCCC(c3nccn3CCN(C)C)C2)nc(N)n1 (centres undefined)", 5.13],
  ["O=C(NCCCn1ccnc1)N1CCCC1c1cccs1 (centres undefined)", -4.65],
  ["Cc1ccc(C(=O)NS(=O)(=O)c2cccc3cnccc23)c(=O)[nH]1", 13],
  ["COCCCNC(=O)CN(C)C(=O)c1cc(C)sc1C", 14.8],
  ["Cc1c(C(=O)NCC2CCCO2)nnn1-c1cccc2c1CCN(C)C2 (centres undefined)", 27.2],
  ["CC(=O)NCC(=O)N1CCOC2(CCCN(c3cccnc3)C2)C1 (centres undefined)", 7.03],
  ["COc1cccc(CNC(CN2CCN(C)CC2)c2ccccc2)c1 (centres undefined)", 11.2],
  ["Cc1cnn(Cc2cc(F)ccc2F)c1NC(=O)C1COCCO1 (centres undefined)", 5.83],
  ["CCc1ccc(OCC(O)CN2CCC(O)CC2)cc1 (centres undefined)", 11.1],
  ["c1cncc(CN2CCc3ncnc(C4CCOC4)c3CC2)c1 (centres undefined)", 15.9],
  ["COCc1ccc(CN2CCC(O)(Cn3ccc4ncccc43)CC2)o1", 7.16],
  ["COc1cc(C(=O)N2CCCC(CNS(C)(=O)=O)C2)cc(OC)c1C (centres undefined)", 11],
  ["CC(Nc1cccc(CN2CCOC2=O)c1)C(=O)Nc1ccccc1F (centres undefined)", 29.9],
  ["CN(Cc1ccco1)C(=O)CN1CCCCC1Cn1cccn1 (centres undefined)", -30.8],
  ["C=Cn1ncc(CN2C[C@@H]3CCCN3C[C@H]2CCSC)c1C", 15.9]
]}

* * *

Percent Effect overview
molecular target: Ubiquitin-activating enzyme e1, putative (Leishmania donovani (strain BPK282A1)); assay: Leishmania donovani Ubiquitin Activating Enzyme (LdE1); format: functional; set-up: scale not given: direction of the effect not stated beside the values; conditions: 30 µM
Results with a measured potency or affinity are listed apart.

{"columns": ["COMPOUND", "Percent Effect (%)"],
 "data": [
  ["COCc1nc(N(C)C)ncc1C(=O)NC(C)C", -1.33],
  ["COc1cccc(-c2nc(CNCCn3cccn3)cs2)c1", -2.56],
  ["Cc1ccc(N2CCC3(CCN(C(N)=O)CC3)CC2)nn1", 1.3],
  ["Cc1ccccc1CNC(=O)CN1CCN(Cc2nccn2C)CC1", 21.6],
  ["CCOC(=O)N1CCN(C(=O)CCn2ccc3c(OC)cccc32)CC1", 0],
  ["CC(C)n1[nH]c(=O)c2c1NC(=O)CC2c1cccc(OC(F)F)c1 (stereo not drawn)", 2.7],
  ["Cc1cc(CN(C)C(=O)c2ccc(Cl)c(S(C)(=O)=O)c2)no1", 13.3],
  ["CCc1ccc(O)c(C(=O)NC2CCN(S(=O)(=O)CC)CC2)c1", 17.9],
  ["COc1cc(C(=O)NS(=O)(=O)c2cccc(C#N)c2)cc(Cl)c1OC", -5.41],
  ["CCOc1ccccc1-c1noc(CN(C)Cc2cnn(C)c2)n1", 8.11],
  ["CC(NC1(CNC(=O)CC(C)(C)C)CCOCC1)c1ccccc1 (stereo not drawn)", 8.11],
  ["Cn1cnc2c1CCN(Cc1csc(-c3ccsc3)n1)C2", 0],
  ["COc1cccc2c1ccn2CCC(=O)NCCCC(=O)O", 20],
  ["CC(C)C(NC(=O)NCCNc1ccccn1)c1cccs1 (stereo not drawn)", 18.2],
  ["O=C(CCC1CCN(Cc2ncc[nH]2)CC1)Nc1ccccc1Cl", -5.41],
  ["O=C(CCc1ccccc1)N1CCn2cc(Cn3cncn3)nc2C1", 0],
  ["COc1cccc(C(=O)NS(=O)(=O)c2cccc(C#N)c2)c1OC", 10.8],
  ["Cc1ccc(C(=O)N2CCN(S(C)(=O)=O)CC2)cc1N1CCNC1=O", 8],
  ["CC(C)n1ccnc1C1CCN(Cc2ccc(Cl)c(F)c2)CC1", 5.2],
  ["COCC1CN(CC2CC2)Cc2nn(C)cc21 (stereo not drawn)", -1.3],
  ["Cc1ccccc1N1CC2(CCN(S(=O)(=O)c3cccs3)C2)CC1=O (stereo not drawn)", 24.7],
  ["CCOc1ncccc1NC(=O)c1cc(C)c(C)s1", 1.39],
  ["CCOc1ccccc1C(=O)N1CCCC1c1ncc2c(n1)CCNC2 (stereo not drawn)", 4],
  ["N#Cc1c(F)cccc1N1CCN(S(=O)(=O)c2cccs2)CC1", -8.22],
  ["CS(=O)(=O)NCC1CCCN(C(=O)c2cc3ccccc3o2)C1 (stereo not drawn)", 28.6],
  ["CN(Cc1ccsc1)C(=O)Nc1ccc(S(=O)(=O)N(C)C)cc1", 17.7],
  ["COc1ccccc1C(O)CNC(=O)NCc1cccnc1OC (stereo not drawn)", 12.7],
  ["Cc1nnc(N2CCC(CNC(=O)OC(C)(C)C)CC2)c(C#N)c1C", 7.79],
  ["CC1CCCN(Cc2csc(-c3ncccn3)n2)CC1 (stereo not drawn)", -16.2],
  ["COc1c(CNC2CCSc3ccc(F)cc32)c(C)nn1C (stereo not drawn)", 13],
  ["COc1ccc(C)cc1CN1CCCC1c1noc(C2CC2)n1 (stereo not drawn)", -2.7],
  ["Cc1nc2c(c(C)c1CC(=O)NCc1cccc(C#N)c1)c(=O)[nH]n2C", 7.79],
  ["CCCS(=O)(=O)N1CCN(c2cc(-n3cnc(C)c3C)nc(C)n2)CC1", 0],
  ["CCN(CC)S(=O)(=O)N1CCCC(c2cccc(C(=O)O)c2)C1 (stereo not drawn)", 16.2],
  ["Cc1ccc(CC(=O)N2CCCCC2c2nc(C)cs2)cn1 (stereo not drawn)", 3.8],
  ["C[C@@H]1CN(C2(C(=O)N3CCCCCC3)Cc3ccccc3C2)C[C@H](C)O1", 6.94],
  ["Cc1ccc(N2CCN(C(=O)COc3ccccc3)CC2)nn1", 8.22],
  ["CN(C)S(=O)(=O)N1CCN(C(=O)c2ccc3ccn(C)c3c2)CC1", 8.11],
  ["Cc1cc(NCc2cc3n(n2)CCCN(S(C)(=O)=O)C3)ncn1", 2.7],
  ["CC(=O)c1cccc(OCCCC(=O)NCC2CCCN2C)c1 (stereo not drawn)", 13.2],
  ["Cc1noc(C(C)C)c1C(=O)NCCCOC(C)C", 2.6],
  ["CCN(Cc1ccc2c(c1)OCCO2)C(=O)NC(C)Cn1ccnc1 (stereo not drawn)", 23.4],
  ["O=C(Cc1cn2ccsc2n1)N1CCCC(n2cncn2)C1 (stereo not drawn)", 12.8],
  ["CN(C)C(=O)c1nc2c(s1)CCN(C(=O)c1ccc(Cl)cc1)CC2", 18.7],
  ["Cc1cc(C)nc(Nc2cc(C3CCCN(C)C3)nc(C)n2)n1 (stereo not drawn)", 9.46],
  ["COc1ccc(CC(=O)N2CCCCC2Cn2cccn2)cc1OC (stereo not drawn)", 7.89],
  ["CC(=O)N1CCc2c(nc(-c3ccncc3)nc2N(C)CC(O)CO)C1 (stereo not drawn)", 2.7],
  ["CCOc1ccccc1C1CCCN1 (stereo not drawn)", 7.89]
]}
